# TEST_DETAILS: gradient 5% acetonitrile 3 min, to 50% in 2 min, to 85% in 15 min, held 3 min, 100 µL/min
# CONDITION_SUMMARY: column: Zorbax Extend-C18 2.1 x 50 mm; eluents: water / acetonitrile, 0.1% formic acid
RESULT_TYPE: RP-LC retention time
Report the figure along with its unit, number first.

// below: answered compounds
Which RP-LC retention time reading was recorded for the compound CCN1CCN(C(=O)c2cn(-c3ccc(NC(=O)CC(C)C)cn3)cn2)CC1 ?
589 s

Which RP-LC retention time reading was recorded for the compound COCCc1noc(-c2ccc(=O)n(CC(=O)Nc3ccccc3F)c2)n1 ?
695 s

Which RP-LC retention time reading was recorded for the compound NC(=O)C1CCN(C(=O)c2ccc(F)cc2)CC1 ?
589 s

Which RP-LC retention time reading was recorded for the compound O=C(CC1CCN(C(=O)C2(c3ccccc3)CC2)C1)NC1CC1 (centres undefined) ?
666 s

Which RP-LC retention time reading was recorded for the compound CC(C)CCNC(=O)N1CCC(c2cc(N)on2)CC1 ?
659 s

Which RP-LC retention time reading was recorded for the compound Cc1ccc(N2C(=O)CCS2(=O)=O)cc1S(=O)(=O)NCCc1c[nH]c2ccccc12 ?
799 s

Which RP-LC retention time reading was recorded for the compound Cc1ccc(C2Cn3nnc(-c4nc(-c5ccccc5Br)no4)c3CO2)c(C)c1 (centres undefined) ?
1270 s

Which RP-LC retention time reading was recorded for the compound O=C(Nc1ccccc1)C1CCCN(c2ccc3cc(S(=O)(=O)N4CCCC4)ccc3n2)C1 (centres undefined) ?
773 s

Which RP-LC retention time reading was recorded for the compound O=C(CN1C(=O)CCCc2ccccc21)NCc1ccc(F)c(Cl)c1 ?
859 s

Which RP-LC retention time reading was recorded for the compound O=C(Nc1nc(-c2ccc3c(c2)OCCO3)cs1)c1cc(Cl)sc1Cl ?
1120 s

Others:
Which RP-LC retention time reading was recorded for the compound Cc1ccc(S(=O)(=O)NC2CCN(C(=O)C3CC(=O)N(C4CCCC4)C3)CC2)cc1 (centres undefined) ?
727 s

Which RP-LC retention time reading was recorded for the compound CCCn1cc(S(=O)(=O)Nc2cccc(C)c2)c2cccnc21 ?
845 s

Which RP-LC retention time reading was recorded for the compound CCn1c(C(=O)NCc2ccc(OC)cc2)cc2sc(Cl)cc21 ?
1130 s

Which RP-LC retention time reading was recorded for the compound c1ccc(OCc2nc(-c3ccc(-n4ccnc4)nc3)no2)cc1 ?
689 s

Which RP-LC retention time reading was recorded for the compound CCCS(=O)(=O)N1CC(N(C)Cc2cccnc2)C1 ?
559 s

Which RP-LC retention time reading was recorded for the compound CN1C(=O)c2cc(C(=O)NCCc3ccccc3)nn2CC1(C)C(=O)NCc1ccccc1 (centres undefined) ?
769 s

Which RP-LC retention time reading was recorded for the compound CCOC(=O)C1CCN(C(=O)Cn2nc(C)c3sc(-c4ccccc4)nc3c2=O)CC1 ?
842 s

Which RP-LC retention time reading was recorded for the compound COc1cc(NC(=O)N2CCC3(CC2)Nc2ccccc2-n2cccc23)cc(OC)c1OC ?
920 s

----------
Below, each entry is listed with its recorded RP-LC retention time.
# TEST_DETAILS: gradient 5% acetonitrile 3 min, to 50% in 2 min, to 85% in 15 min, held 3 min, 100 µL/min
# CONDITION_SUMMARY: column: Zorbax Extend-C18 2.1 x 50 mm; eluents: water / acetonitrile, 0.1% formic acid
Report the value in s with no unit label.

// below: answered molecules
Which RP-LC retention time reading was recorded for the molecule CCOc1ccc(N2CCn3c2nn(Cc2cccc(C(F)(F)F)c2)c(=O)c3=O)cc1 ?
915

Which RP-LC retention time reading was recorded for the molecule CC(C)n1c(CCNC(=O)c2cccc(Cl)c2)nc2cccnc21 ?
701

Which RP-LC retention time reading was recorded for the molecule CCS(=O)(=O)c1nc2ccc(NS(C)(=O)=O)cc2s1 ?
699

Which RP-LC retention time reading was recorded for the molecule CCCNC(=O)C1CCN(c2nc3ccc(-c4cccs4)nc3s2)CC1 ?
872

Which RP-LC retention time reading was recorded for the molecule COc1cccc(-c2noc(-c3nn(-c4ccc(Cl)cc4)ccc3=O)n2)c1OC ?
896

Which RP-LC retention time reading was recorded for the molecule Cc1noc(-c2nn(C)c3c2CN(C(=O)c2ccccc2Br)CC3)n1 ?
725

Which RP-LC retention time reading was recorded for the molecule COc1ccc2c(c1)c(CN1CCC(C(=O)NCCN3CCOCC3)CC1)cn2C ?
553

Which RP-LC retention time reading was recorded for the molecule O=C(Cn1cccc1-c1nc(-c2ccc(Cl)cc2)cs1)NCCCN1CCOCC1 ?
612

Others:
Which RP-LC retention time reading was recorded for the molecule CCCn1cc(CCNS(=O)(=O)c2c(C)c(C)cc(C)c2C)c2cccnc21 ?
1060

Which RP-LC retention time reading was recorded for the molecule O=C(c1cccs1)N1CCC2(CC1)NC(=O)N(Cc1ccc(Cl)cc1)C2=O ?
816

----------
# TEST_DETAILS: gradient 5% acetonitrile 3 min, to 50% in 2 min, to 85% in 15 min, held 3 min, 100 µL/min
# CONDITION_SUMMARY: column: Zorbax Extend-C18 2.1 x 50 mm; eluents: water / acetonitrile, 0.1% formic acid
Label T for high-side RP-LC retention time (at or above 700 s) and F for low-side RP-LC retention time (below it).

# bool: RP-LC retention time of Cc1nnc(-c2nnc(N3CCCC3)c3ccccc23)o1 >= 700 s
F

Others:
# bool: RP-LC retention time of COCc1noc([C@@H]2CC(F)(F)CN2C(=O)c2cncn2C)n1 >= 700 s
F

# bool: RP-LC retention time of O=C(NCc1cccnc1)C1c2ccccc2C(=O)N1Cc1ccc2c(c1)OCO2 (stereo not given) >= 700 s
F

# bool: RP-LC retention time of Cn1nc(C2CCN(S(=O)(=O)c3cc(F)cc(F)c3)CC2)n(C2CCCC2)c1=O >= 700 s
T

----------
# TEST_DETAILS: gradient 5% acetonitrile 3 min, to 50% in 2 min, to 85% in 15 min, held 3 min, 100 µL/min
# CONDITION_SUMMARY: column: Zorbax Extend-C18 2.1 x 50 mm; eluents: water / acetonitrile, 0.1% formic acid
Below, each entry is listed with its recorded RP-LC retention time.
Report the value in s with no unit label.

// below: answered compounds
Which RP-LC retention time reading was recorded for the compound O=C(N[C@H]1C[C@@H]2C[C@H]1N(C(=O)c1cccc(Cl)c1)C2)c1ccccc1 ?
748

Which RP-LC retention time reading was recorded for the compound CCn1ncc(C(=O)N2CC(n3cc(COc4ccc(F)cc4)nn3)C2)c1C ?
714

Others:
Which RP-LC retention time reading was recorded for the compound O=C(COc1ccccc1)Nc1cnc(N2CCCCC2)nc1 ?
919

Which RP-LC retention time reading was recorded for the compound Cc1ccccc1S(=O)(=O)N1CCn2c(nn(CC3CC3)c2=O)C1 ?
766

Which RP-LC retention time reading was recorded for the compound O=c1c(S(=O)(=O)N2CCCCCC2)cccn1Cc1ccccc1F ?
941

----------
# TEST_DETAILS: gradient 5% acetonitrile 3 min, to 50% in 2 min, to 85% in 15 min, held 3 min, 100 µL/min
# CONDITION_SUMMARY: column: Zorbax Extend-C18 2.1 x 50 mm; eluents: water / acetonitrile, 0.1% formic acid
RESULT_TYPE: RP-LC retention time (s)
Report the value in s with no unit label.

Which RP-LC retention time reading was recorded for the compound Cn1c(N2CCN(C(=O)Cc3ccccc3Cl)CC2)cc(=O)n(C)c1=O ?
732

Which RP-LC retention time reading was recorded for the compound CC(CNC(=O)Cn1c(=O)n(C(C)C)c2ccc(S(=O)(=O)N3CCCC3)cc21)c1ccccc1 (centres undefined) ?
905

Others:
Which RP-LC retention time reading was recorded for the compound CC1(C)CC(NC(=O)COc2ccc(Cl)cc2Br)CC(C)(C)N1 ?
661

Which RP-LC retention time reading was recorded for the compound CC(=O)Nc1ccc(NC(=O)C2CC(=O)N(c3n[nH]c4cccc(F)c34)C2)cc1 (centres undefined) ?
634

Which RP-LC retention time reading was recorded for the compound COc1ccc(-c2cc(C(=O)NCC(c3ccc(C)o3)N(C)C)no2)cc1 (centres undefined) ?
684

Which RP-LC retention time reading was recorded for the compound CCC(C)NC(=O)c1ccc(-c2nnc3ccc(NC(=O)C4CC4)cn23)cc1 (centres undefined) ?
718

Which RP-LC retention time reading was recorded for the compound O=C(Cc1cccn1-c1cccc(Cl)c1)NCc1ccc(N2CCOCC2)cc1 ?
890

Which RP-LC retention time reading was recorded for the compound CC(=O)N1CCc2cc(-c3ccc(C(=O)NC4CCS(=O)(=O)C4)cc3)ccc21 (centres undefined) ?
676

Which RP-LC retention time reading was recorded for the compound O=C(C1CCCN(S(=O)(=O)c2ccc(-c3ccn[nH]3)o2)C1)N1CCN(c2ccccn2)CC1 (centres undefined) ?
607

Which RP-LC retention time reading was recorded for the compound CC(=O)Nc1cccc(NS(=O)(=O)c2ccc3c(c2)OCCCO3)c1 ?
676

Which RP-LC retention time reading was recorded for the compound CCCNc1cc(N2CCC(CCC(=O)NCc3ccccc3OC)CC2)ncn1 ?
684

Which RP-LC retention time reading was recorded for the compound O=C(NCCN1CCCCC1)C1CCc2sc(C(=O)N3CCCC3)cc2C1 (centres undefined) ?
534
